Where these numbers come from: paper PMC2756588

Target: Myo3, P36006
Experiment: SPOT array
Details: median of control spots 468
Quantity name: SPOT intensity
Number only, no unit.

Guide cases for SPOT intensity, answers given:
Binder	Meas value
GSKSGPPPRPKKPST	3
LPPPPPPPPPPPLPQ	230
IKKRNKIRLPSGSPE	7

The binder KLSRGRYGLPLSSRP showed SPOT intensity equal to 1
